# reported IC50; entries follow
Assay Target: YAP-TEAD interaction (full length human TEAD1-Gal4 fusion, full length YAP mutant S127A, S397A) (UniProt P04386+P28347)
Construct: The TEAD1 construct was prepared by cloning the full length human TEAD1 cDNA; expressed in transfected cells; host or cells: HEK293 GripTite 293 MSR (Invitrogen R795-07), transiently transfected with pSG5_CMV plasmids
Sequence (P04386+P28347 fused, stated change not applied): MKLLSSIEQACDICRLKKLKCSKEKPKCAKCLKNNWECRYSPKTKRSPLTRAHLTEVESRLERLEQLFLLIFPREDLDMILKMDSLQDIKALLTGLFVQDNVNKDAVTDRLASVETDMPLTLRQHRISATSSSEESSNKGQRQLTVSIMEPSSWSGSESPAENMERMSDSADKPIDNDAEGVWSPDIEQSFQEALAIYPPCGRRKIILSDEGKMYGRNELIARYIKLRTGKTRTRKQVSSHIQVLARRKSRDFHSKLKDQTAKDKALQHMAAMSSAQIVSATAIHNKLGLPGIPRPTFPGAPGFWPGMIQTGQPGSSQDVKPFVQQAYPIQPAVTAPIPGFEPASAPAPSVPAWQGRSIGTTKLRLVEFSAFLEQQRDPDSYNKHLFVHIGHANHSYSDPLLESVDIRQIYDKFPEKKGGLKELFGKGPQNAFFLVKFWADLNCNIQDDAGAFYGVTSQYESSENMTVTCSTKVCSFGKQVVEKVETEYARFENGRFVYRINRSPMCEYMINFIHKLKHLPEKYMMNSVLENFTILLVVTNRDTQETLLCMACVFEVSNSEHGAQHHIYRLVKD
Assay Method Text: Cell-based TEAD-GAL4 transactivation assay (luciferase reporter, HEK293)
Cond: HEK293 cells, compounds 0.1 μM to 30 μM, 24 h, concentration that inhibited the luciferase activity by 50%
Response body: numeric value in µM, unit text excluded.

# Compound, Units Of Measure, Meas Value
data = [
    ("COc1cc(/C=N/N(C)C2=NS(=O)(=O)c3cc(B4OCC(C)(C)CO4)ccc32)ccc1F [Ex 59]", "µM", 3.55),
    ("COCn1c(=O)n(C2CCC2)c2cc(/C=N/N(C)C3=NS(=O)(=O)c4ccccc43)ccc21 [Ex 111]", "µM", 8.57),
    ("CN(/N=C/c1ccc(F)c(C(N)=O)c1)C1=NS(=O)(=O)c2ccccc21 [Ex 17]", "µM", 2.75),
    ("COc1cc(C2=NN(C3=NS(=O)(=O)c4cc(B(O)O)ccc43)C(C)CC2)ccc1F (stereo not drawn) [Ex 109]", "µM", 0.7),
    ("COc1cc(/C=N/N(C)C2=NS(=O)(=O)c3cc(B(O)O)ccc32)ccc1F [Ex 50]", "µM", 3.03),
    ("COc1cc(/C=N/N(CC(C)C)C2=NS(=O)(=O)c3ccc(OCB(O)O)cc32)ccc1F [Ex 95]", "µM", 1.35),
]

Let us move to another entry and its IC50.
Task: Param item = CCC1(CC)C(=O)Nc2ccc(/C=N/N(CC(C)C)C3=NS(=O)(=O)c4cc(OC)ccc43)cc21 [Ex 98] ; retrieve measured IC50.
Result: 3.92

----------
Quantity Measured: melting point

Worked cases, melting point given:
# Compound, Meas Value
rows = [
    ("CN(/N=C/c1ccc(F)c(Cl)n1)C1=NS(=O)(=O)c2ccccc21", "219 to 221 °C"),
    ("CN(/N=C/c1ccc(N2CCOCC2)cc1)C1=NS(=O)(=O)c2ccccc21", "258 to 261 °C"),
    ("CC1NC(=O)c2ccc(/C=N/N(C)C3=NS(=O)(=O)c4ccccc43)cc21 (centres unmarked)", "> 298 °C"),
    ("CCC1(CC)C(=O)Nc2ccc(/C=N/N(C)C3=NS(=O)(=O)c4ccccc43)cc21", "288 to 289 °C"),
    ("COc1cc(/C=N/N(CC(C)(C)CO)C2=NS(=O)(=O)c3ccccc32)ccc1F", "207 to 208 °C"),
]

Task: Param item = CN(/N=C/c1cnc(N2CCC2)s1)C1=NS(=O)(=O)c2ccccc21 ; retrieve measured melting point.
Result: 256 to 258 °C

Task: CN(/N=C/c1ccc2c(c1)C(C)(C)C(=O)N2)C1=NS(=O)(=O)c2ccccc21 ?
Result: > 300 °C

Task: CNC(=O)Cc1ccc(/C=N/N(C)C2=NS(=O)(=O)c3ccccc32)cc1OC ?
Result: 228 to 231 °C

Task: CN(/N=C/c1ccc2[nH]nnc2c1)C1=NS(=O)(=O)c2ccccc21 ?
Result: 313 to 315 °C

Task: CCN(/N=C/c1ccc2c(c1)C(C)(C)NC2=O)C1=NS(=O)(=O)c2ccccc21 ?
Result: 289 to 291 °C

Task: COCCOc1ccc2c(c1)C(N(C)/N=C/c1ccc(F)c(OC)c1)=NS2(=O)=O ?
Result: 200 °C

Task: COc1cc(/C=N/N(C)C2=NS(=O)(=O)c3cc(O)ccc32)ccc1F ?
Result: 258 °C

Task: Cc1ncc(/C=N/N(C)C2=NS(=O)(=O)c3ccccc32)s1 ?
Result: 248 °C
